Tested on: RXF 393 renal
Assay Method Text: NCI tumour cell line growth inhibition, 48 h; in the data active = GI50 below about 0.43 µM; inactive = the rest
Outcome codes: active, inactive

| Compound | Label Value |
| --- | --- |
| C[CH2][Sn]([CH2]C)([O]C(=O)c1ccccc1OC)[O][Sn]([CH2]C)([CH2]C)[O]C(=O)c1ccccc1OC | inactive |
| C[C@]12CC[C@@H]3c4cc(OC(F)F)c(OS(N)(=O)=O)cc4CC[C@H]3[C@@H]1CC[C@@H]2O | active |
| CCCCCCNC(=O)Oc1ccc(/C(=C(\C)c2ccc(Cl)cc2)c2ccc(OCCN3CCCCC3)cc2)cc1 | inactive |
| CCC1(O)C(=O)OCc2c1cc1n(c2=O)Cc2cc3c(NC(=O)CN)cccc3nc2-1 (stereo unspecified) | inactive |
| O=[N+]([O-])c1ccc(N2CCOCC2)c2c1no[n+]2[O-] | inactive |
| O=C(CCCCCCN1CC(=O)N2[C@@H](c3ccc(Cl)c(Cl)c3)c3[nH]c4ccccc4c3C[C@H]2C1=O)NO | inactive |
| c1ccc2c(c1)Nc1ccncc1S2 | inactive |
| C(=N/N(Cc1ccccc1)Cc1ccccc1)/c1ccccc1 | inactive |
| Oc1cccc2ccc(N/N=C/c3cc(CN4CCOCC4)c(O)c4ncccc34)nc12 | active |
| CC1(C)CC(=O)C2=C(C1)OC(N)=C(c1nc(-c3ccccc3)cs1)C2c1ccc(Br)cc1 (stereo unspecified) | inactive |
| NS(=O)(=O)c1ccc(-c2cc3ccncc3cc2OCc2ccccc2)cc1 | inactive |
| Cc1cc(N(CCCNc2ccnc3cc(Cl)ccc23)Cc2ccco2)nc(N2CCN(C)CC2)n1 | inactive |
| CC(C)(O)CNc1nc(Nc2ccnc(C(F)(F)F)c2)nc(-c2cccc(C(F)(F)F)n2)n1 | inactive |
| CC1=C(CC(=O)c2cccc([N+](=O)[O-])c2)C(=O)c2ccccc2C1=O | inactive |
| COc1ccc(/C=C(\C#N)n2nnc3c(F)cccc32)cc1 | active |
| N#CCCN1C/C(=C/c2ccc(Cl)cc2)C(=O)/C(=C/c2ccc(Cl)cc2)C1 | inactive |
| COc1ncnc(NS(=O)(=O)c2ccc(N=C3C(=O)N(CN4CCN(c5c(F)cc6c(=O)c(C(=O)O)cn(C7CC7)c6c5OC)CC4C)c4ccc(Br)cc43)cc2)c1OC (stereo unspecified) | inactive |
| COC(=O)c1cncc(/C=C/c2c(C)cc(O)cc2C)c1 | inactive |
| C/C(=C\c1cnc(C)s1)[C@@H]1C[C@@H]2O[C@@H]2CCC[C@H](C)[C@H](O)[C@@H](C)C(=O)C(C)(C)[C@@H](O)CC(=O)O1 | active |
| O=C(CC1(O)C(=O)N(Cc2ccccc2)c2ccccc21)c1ccc(C(=O)NCC2CCC3(CC2)OOC2(CCCCC2)OO3)cc1 (stereo unspecified) | inactive |
| CSc1nc2sc3c(c2c(=O)n1-c1ccc(C(C)C)cc1)CCC(=O)C3 | inactive |

* * *

Tested on: MALME-3M melanoma
Assay Method Text: NCI tumour cell line growth inhibition, 48 h
Below is a list of entries, each paired with its recorded GI50 value.

| Smiles Code | Target | GI50 |
| --- | --- | --- |
| CC(=O)NCc1cccc(C#Cc2cncnc2Nc2ccc(OCc3cccc(F)c3)c(Cl)c2)c1 | MALME-3M melanoma | 19.4 µM |
| c1ccc2c(c1)Nc1ccncc1S2 | MALME-3M melanoma | 28.2 µM |
| Cc1cc(N=Nc2ccccc2C)ccc1N | MALME-3M melanoma | 16.2 µM |
| COC(=O)c1cncc(/C=C/c2c(C)cc(O)cc2C)c1 | MALME-3M melanoma | 11.5 µM |
| Cc1cc(C)nc(SC2=C(Nc3cc(Cl)ccc3O)C(=O)N(Cc3ccccc3)C2=O)n1 | MALME-3M melanoma | 39.4 µM |

* * *

Below is a list of entries, each paired with its recorded log10(TGI) value.
Tested on: NCI-H23 lung
Assay Method Text: NCI tumour cell line growth inhibition, 48 h
Observation Type: log10(TGI) (log10 of the value in µM)

| Compound | Value Observed |
| --- | --- |
| COC1C(N)C(OC2C(Oc3cccc4c(O)c5c(=O)oc6ccc(C)c7c(=O)oc(c34)c5c67)OC(C)C(O)C2(C)O)OC(C)C1O (stereo unspecified) | -0.60 |
| CCOP1(=O)C=C(C)C(Cl)=C(C)C1 (stereo unspecified) | 1.66 |
| COc1ccc(/C=C(\C#N)n2nnc3c(F)cccc32)cc1 | 1.10 |
| Oc1ccc2cc(Br)ccc2c1-c1c(O)ccc2ccc(Br)cc12 | 1.46 |
| COC(=O)C(CCSC)NC(=O)CNC(=O)CSc1nnc(COc2ccc(Cl)cc2)n1-c1ccccc1 (stereo unspecified) | 1.48 |
| CC1=NN(c2nc(N)nc(/C(C#N)=C\c3csc([N+](=O)[O-])c3)n2)C(C)(C)C1 | 1.99 |

* * *

Tested on: SK-MEL-28 melanoma
Assay Method Text: NCI tumour cell line growth inhibition, 48 h; in the data active means GI50 below about 0.43 µM; inactive means the rest
Outcome codes: active, inactive

| Compound | Label Value |
| --- | --- |
| c1ccc2c(c1)Nc1ccncc1S2 | inactive |
| CSc1nc2sc3c(c2c(=O)n1-c1ccc(C(C)C)cc1)CCC(=O)C3 | inactive |
| Cc1cc(C#Cc2ccc(C(C)(C)C)cc2)ccc1-n1c(/C=C/c2ccc(O)cc2O)nc2ccccc2c1=O | inactive |
| Cn1cc(C2=C(c3cccc(OC[C@@H](O)CO)c3)C(=O)NC2=O)c2ccccc21 | inactive |
| COc1ccc(N(CC(=O)NCCC[Te]c2ccccc2)C(=O)CNC(=O)OC(C)(C)C)cc1 | inactive |
| C=CCN1CC(=O)N2[C@@H](Cc3ccc(O)cc3F)C(=O)N(Cc3cccc(N4CC(N5CCN(CC)CC5)C4)n3)C[C@@H]2N1C(=O)NCc1ccccc1 | active |
| Nc1nc(Nc2ccccc2SSc2ccccc2Nc2nc(N)nc(C(Cl)(Cl)Cl)n2)nc(C(Cl)(Cl)Cl)n1 | inactive |
| COc1cc2nc(-c3cc(F)ccc3O)nc(N[C@@H]3CNC[C@H]3C(C)(C)O)c2cc1OC | inactive |
| C(=N/N(Cc1ccccc1)Cc1ccccc1)/c1ccccc1 | inactive |
| C[C@]12CC[C@@H]3c4cc(OC(F)F)c(OS(N)(=O)=O)cc4CC[C@H]3[C@@H]1CC[C@@H]2O | inactive |
| Cc1cc(C)nc(SC2=C(Nc3cc(Cl)ccc3O)C(=O)N(Cc3ccccc3)C2=O)n1 | inactive |
| COc1ncnc(NS(=O)(=O)c2ccc(N=C3C(=O)N(CN4CCN(c5c(F)cc6c(=O)c(C(=O)O)cn(C7CC7)c6c5OC)CC4C)c4ccc(Br)cc43)cc2)c1OC (configuration not stated) | inactive |
| COC1=C(OC)C(=O)C(SC/C=C(\C)CCCC(C)CCCC(C)CCCC(C)C)=CC1=O (configuration not stated) | inactive |
| CN(CCNCc1ccccn1)CCNCc1ccccn1 | inactive |
| O=[N+]([O-])c1ccc(N2CCOCC2)c2c1no[n+]2[O-] | inactive |
| Cc1cccc2c3c(sc12)C(c1ccc(Cl)cc1)C(C#N)=C(N)O3 (configuration not stated) | inactive |
| COC(=O)c1cncc(/C=C/c2c(C)cc(O)cc2C)c1 | inactive |

* * *

Tested on: BT-549 breast
Assay Method Text: NCI tumour cell line growth inhibition, 48 h; in the data active = GI50 below about 0.43 µM; inactive = the rest
Outcome codes: True for active, False for inactive

| Compound | Target | Label Value |
| --- | --- | --- |
| Cc1ccc(-c2nc([P+](c3ccccc3)(c3ccccc3)c3ccccc3)c(S(=O)(=O)c3ccc(C)cc3)o2)cc1 | BT-549 breast | False |
| O=C(/C=C/c1cccc(O)c1)c1cccc(-n2cc(-c3ccccc3)[nH]c2=O)c1 | BT-549 breast | False |
| Oc1ccc(C(c2ccc(O)cc2)c2ccc(Br)cn2)cc1 | BT-549 breast | True |
| COC(=O)CCCCC(=O)c1c(C)[nH]c(/C=C2\N=C(c3ccc[nH]3)C=C2OC)c1C | BT-549 breast | True |
| C#CCNC(=O)[C@H](CC)[C@H]1CC[C@H](C)[C@H]([C@@H](C)[C@H](O)[C@H](C)C(=O)[C@H](CC)C2O[C@]3(C=CC(=O)[C@]4(CC[C@@](C)([C@H]5CC[C@](O)(CC)[C@H](C)O5)O4)O3)[C@H](C)C[C@@H]2C)O1 (some centres undefined) | BT-549 breast | False |
| CC1=C(CC(=O)c2cccc([N+](=O)[O-])c2)C(=O)c2ccccc2C1=O | BT-549 breast | False |
| N#CC1=C(/N=C/c2ccccc2)Oc2c(ccc3ccccc23)C1c1ccccc1 (centres undefined) | BT-549 breast | False |
| CCc1cccc(C)c1NC(=O)c1sc2nc3c(cc2c1N)C(=O)CCC3 | BT-549 breast | False |
| N#CCCN1C/C(=C/c2ccc(Cl)cc2)C(=O)/C(=C/c2ccc(Cl)cc2)C1 | BT-549 breast | False |
